MEASURED_ON: human plasma protein factor Xa (Homo sapiens, UniProt P00742)
Construct: The human plasma protein factor Xa was purchased
Sequence (P00742 235-488 limits assumed): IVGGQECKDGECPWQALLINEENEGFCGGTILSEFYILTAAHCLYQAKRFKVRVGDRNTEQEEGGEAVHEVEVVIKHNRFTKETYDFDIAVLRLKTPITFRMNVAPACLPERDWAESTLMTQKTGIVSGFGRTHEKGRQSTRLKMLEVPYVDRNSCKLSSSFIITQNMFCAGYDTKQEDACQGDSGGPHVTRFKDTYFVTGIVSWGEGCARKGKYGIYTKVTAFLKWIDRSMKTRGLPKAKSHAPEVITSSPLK
Sequence (P00742 41-179 partner limits assumed): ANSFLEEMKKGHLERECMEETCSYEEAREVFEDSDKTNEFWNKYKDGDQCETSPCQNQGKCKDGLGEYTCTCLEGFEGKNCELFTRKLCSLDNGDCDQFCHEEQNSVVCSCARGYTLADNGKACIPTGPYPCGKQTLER
ASSAY_EXPLANATION: Factor Xa IC50 determination (cleavage of paranitroanilide substrate S-2765)
TEST_SETTINGS: factor Xa 1 nM, S-2765 100 μM, Tris buffered saline pH 7.4, read at 405 nm
REPORTED_METRIC: IC50

Below are worked cases with known answers.
NC(=O)c1cc(-n2ccccc2=O)ccc1-n1cc(CNC(=O)c2ccc(Cl)s2)nn1 ... ≤ 100 nM
O=C1CN(c2cc(N3CCCCC3=O)ccc2-n2cc(CNC(=O)c3ccc(Cl)s3)nn2)CCN1 ... ≤ 100 nM
O=C(NCc1cn(-c2ccc(-n3ccccc3=O)cc2N2CCC[C@H](O)C2)nn1)c1ccc(Cl)s1 ... ≤ 100 nM
O=C(NCc1cn(-c2ccc(-n3ccccc3=O)cc2C(=O)Nc2ccncc2)nn1)c1ccc(Cl)s1 ... 100 to 500 nM
CC(=N)N1CCN(c2cc(-n3ccccc3=O)ccc2-n2cc(CNC(=O)c3ccc(Cl)s3)nn2)CC1 ... ≤ 100 nM
O=C(NCc1nnn(-c2ccc(-n3ccccc3=O)cc2OC[C@@H](O)CO)c1I)c1ccc(Cl)s1 ... ≤ 100 nM

IC50 for `Cc1nc(COc2cc(-n3ccccc3=O)ccc2-n2cc(CNC(=O)c3ccc(Cl)s3)nn2)cs1` is ≤ 100 nM
